# SUBJECT_OF_TEST: KRAS G12V (Homo sapiens (Human), UniProt P01116+P62937, G12V)
# Sequence (P01116-2 other isoform, or with tags, fused parts or gaps G12V, one chain of several): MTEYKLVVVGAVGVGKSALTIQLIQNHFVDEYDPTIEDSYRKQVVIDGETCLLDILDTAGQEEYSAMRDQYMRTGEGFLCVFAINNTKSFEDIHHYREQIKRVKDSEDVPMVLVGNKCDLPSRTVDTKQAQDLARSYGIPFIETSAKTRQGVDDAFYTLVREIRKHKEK
# PROCEDURE_SUMMARY: Ras-Raf (BRAF RBD) disruption / FRET / MOA assay, KRAS G12V
# Type: biochemical
# CONDITION_SUMMARY: read-out: IC50* KRAS G12V FRET data
pIC50: −log10 of the molar value.
QUANTITY_MEASURED: pIC50

>>> measured("CO[C@@H](C)c1ncccc1-c1c2c3cc(ccc3n1CC(F)(F)F)-c1cccc(c1)C[C@H](NC(=O)[C@@H](COC1CN(C(=O)C#CC(C)(C)N(C)C)C1)C(C)C)C(=O)N1CCC[C@H](N1)C(=O)OCC(C)(C)C2 (atropisomer, axis not shown) [Example A376]")
"5.00 to 6.00"
>>> measured("CCn1c(-c2cccnc2[C@H](C)OC)c2c3cc(ccc31)-c1cccc(c1)C[C@H](NC(=O)[C@H](C(C)C)N(C)C(=O)[C@H]1CCN(C(=O)C#CC(C)(C)N(C)C)C1)C(=O)N1CCC[C@H](N1)C(=O)OCC(C)(C)C2 (atropisomer, axis not shown) [Example A290]")
"5.00 to 6.00"

---

# SUBJECT_OF_TEST: KRAS G12S (Homo sapiens (Human), UniProt P01116+P62937, G12S)
# Sequence (P01116-2 other isoform, or with tags, fused parts or gaps G12S): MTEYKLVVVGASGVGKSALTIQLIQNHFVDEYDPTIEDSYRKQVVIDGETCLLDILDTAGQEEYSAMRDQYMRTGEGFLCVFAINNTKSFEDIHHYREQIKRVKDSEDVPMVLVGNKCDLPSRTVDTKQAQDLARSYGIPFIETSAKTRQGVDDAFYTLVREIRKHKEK
# Sequence (P62937 whole entry): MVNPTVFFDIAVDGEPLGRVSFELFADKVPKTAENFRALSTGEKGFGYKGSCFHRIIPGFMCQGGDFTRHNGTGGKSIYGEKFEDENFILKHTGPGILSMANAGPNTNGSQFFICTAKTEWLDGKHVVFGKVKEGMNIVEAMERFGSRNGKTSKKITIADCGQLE
# PROCEDURE_SUMMARY: Ras-Raf (BRAF RBD) disruption / FRET / MOA assay, KRAS G12S
# Assay type: biochemical
# CONDITION_SUMMARY: Ras-Raf disruption/FRET/MOA assay; class symbols; read-out: KRAS G12S FRET data IC50
pIC50: −log10 of the molar value.
Each entry below carries its reported pIC50.
QUANTITY_MEASURED: pIC50

>>> measured("CCn1c(-c2cccnc2[C@H](C)OC)c2c3cc(ccc31)N1CCC[C@@H](C[C@H](NC(=O)[C@H](C(C)C)N(C)C(=O)C3(F)CCN(C(=O)C#CC(C)(C)N(C)C)CC3)C(=O)N3CCC[C@H](N3)C(=O)OCC(C)(C)C2)C1 (atropisomer, axis not shown) [Example A615]")
"< 5.00"
>>> measured("C=CC(=O)N1CC(OC[C@H](C(=O)N[C@H]2C[C@H]3CN(CCO3)c3ccc4c(c3)c(c(-c3cccnc3[C@H](C)OC)n4CC(F)(F)F)CC(C)(C)COC(=O)[C@@H]3CCCN(N3)C2=O)C(C)C)C1 (atropisomer, axis not shown)")
"5.00 to 6.00"
>>> measured("C=CC(=O)N1CCC(C(=O)N(C)[C@H](C(=O)N[C@H]2Cc3cc(O)cc(c3)-c3ccc4c(c3)c(c(-c3cccnc3[C@H](C)OC)n4CC)CC(C)(C)COC(=O)[C@@H]3CCCN(N3)C2=O)C(C)C)CC1 (atropisomer, axis not shown)")
"7.00 to 8.00"
>>> measured("CCn1c(-c2cccnc2[C@H](C)OC)c2c3cc(ccc31)-c1cc(O)cc(c1)C[C@H](NC(=O)[C@H](C(C)C)N(C)C(=O)N1CCN(C(=O)/C=C/CN(C)C)CC1)C(=O)N1CCC[C@H](N1)C(=O)OCC(C)(C)C2 (atropisomer, axis not shown)")
"6.00 to 7.00"
>>> measured("C=CC(=O)N1CCCN(C(=O)N(C)[C@H](C(=O)N[C@H]2Cc3cc(O)cc(c3)-c3ccc4c(c3)c(c(-c3cccnc3[C@H](C)OC)n4CC)CC(C)(C)COC(=O)[C@@H]3CCCN(N3)C2=O)C(C)C)CC1 (atropisomer, axis not shown)")
"7.00 to 8.00"
>>> measured("C=CC(=O)N1CC[C@H](C(=O)N(C)[C@H](C(=O)N[C@H]2Cc3nc(cs3)-c3ccc4c(c3)c(c(-c3cccnc3COC)n4CC)CC(C)(C)COC(=O)[C@@H]3CCCN(N3)C2=O)C(C)C)C1")
"< 5.00"
>>> measured("C=CC(=O)N1CC[C@H](C(=O)N(C)[C@H](C(=O)N[C@H]2Cc3cccc(c3)-c3ccc4c(c3)c(c(-c3cc5c(nc3[C@H](C)OC)CN(C)CC5)n4CC)CC(C)(C)COC(=O)[C@@H]3CCCN(N3)C2=O)C(C)C)C1 (atropisomer, axis not shown)")
"5.00 to 6.00"
>>> measured("CCn1c(-c2cccnc2[C@H](C)OC)c2c3cc(ccc31)-c1csc(n1)C[C@H](NC(=O)CCOC1CN(C(=O)C#CC(C)(C)N3CCC3)C1)C(=O)N1CCC[C@H](N1)C(=O)OCC(C)(C)C2 (atropisomer, axis not shown)")
"< 5.00"
